# Run description: Dipeptide cleavage half time in PBS on model hexapeptide (HPLC, LC-MS)
# Assay type: physicochemical
# Settings: phosphate buffered saline (PBS) buffer, pH 7.4
Square brackets hold non-standard residues; d marks the D form. Peptide text beside a SMILES is read from it. Sar = CNCC(=O)O
Endpoint name: half-life (h)
State the answer as a number, implicitly in h.

q: Entry C[C@@H](O)[C@H](NC(=O)CNC(=O)[C@H](CCCNC(=N)N)NC(=O)[C@H](CO)NC(=O)[C@H](Cc1c[nH]cn1)NC(=O)CN(C)C(=O)[C@@H](N)CCCCN)C(=O)N[C@@H](Cc1ccccc1)C(N)=O [lys-sar-HSRGTF-NH2] (H-K[Sar]HSRGTF-NH2; N-terminus assumed) needs its half-life filled in; supply it.
a: 14

Data credit: patent US8969288B2
